folding stability dG unfold reference
protocol-details: folding stability dG unfold from trypsin proteolysis; higher = more stable
Please give a number only; it is taken to be in kcal/mol.

Examples from the recorded data:
SAGRLTTELGDVKAEVFRIPNLNLSLVVYEYPTSVRTLLATEHGDTVTIHPLTETPLPLPPLSDLKSLSAGG [r19_328_TrMRF] :: 0.0381
SAGGSAGGSAGGTGPDTPVTIETTVESVVYEGPEVKVVETFEKKITVTIPPTANPEKVSLSAGGSAGGSAGG [r7_591_JUSTAS] :: -0.81
SAGGSAKMKKVKITLYAKVKSLEEAKEIAEEIKKSFPSIEKVEVKTEPLEDGSLLVKVDAIFYVPESAGGSA [r15_726_TrMRF] :: 2.66
SAGGMRIELVRTYIEEPDENGKLKGSGYREVLVLRPPPPVIRVPPELLEEAEELRKKLDGPVEPEELGSAGG [r19_315_JUSTAS] :: 3.63
SAGGSAGGSPKWKTIEITVLVPGMPAEEIAKNIANNFGIEITDIDVQLFPNGWVVVSATIRVKSAGGSAGGS [r12_359_TrROS] :: 2.59
SAGGSAGGSAAEVEVETLELEIDGVKITVTRVRNADGELLYFARIEVRPAPPPPPVSLEDLSAGGSAGGSAG [r3_68_TrROS_Hall] :: 3.02
SAGGSAELPSLGAEITVTEDPNRNTYTVTVPLVAPDGAPVGTLTVPFSSLEEARAFLRAQGLGELLSAGGSA [r15_127_JUSTAS] :: 2.59
SQVKIHIPFEVEYSPENGNYFFMIRVRYPGKERPIMFPYKDPEQMREWARTIAKELAKENPDNVEIEIWWSA [r9_1148_TrROS] :: 2.42

[ask] # return recorded folding stability dG unfold for input SAGGSAGGSEKTLVTRTPDGYLLTLTEFTLPDGSKVTLATITFPNTGKTVTVPASLVPADATGSAGGSAGGS [r12_797_TrMRF]
[reply] 1.45

[ask] # return recorded folding stability dG unfold for input SAGGSAGRSRPLRLRFENPENGLRTEVELRVFEIGDYRVILLRERTYHPDTPGLSERDLLILLPPESAGGSA [r15_960_TrMRF]
[reply] 3.03

[ask] # return recorded folding stability dG unfold for input SAGGSAGGSAMPEPVTITVRVPYEPDEAEAAAERIREEEYPDAKSITVTRDPATGTATFTVNSAGGSAGGSA [r18_390_JUSTAS]
[reply] -0.222
